Tested on: M19-MEL
Test: NCI tumour cell line growth inhibition, 48 h
Calls of active or inactive are those of the source. Rule as the data show it: active = GI50 up to about 1.1 µM and inactive = higher.
Hi! Could you answer with just one of these? label 1 (active), label 0 (inactive)

{"columns": ["compound", "category-label"],
 "data": [
  ["O=C1/C(=N\\O)C2CCC1C2 (stereo unspecified)", "label 0"],
  ["O=C(c1ccccc1)c1ccc2cccc(O)c2n1", "label 0"],
  ["CN(C)CC/C(=N\\Nc1c(Cl)cccc1Cl)c1ccccc1", "label 0"],
  ["COc1cc(-c2cc(-c3cc([N+](=O)[O-])c(/C=N/NC(=O)c4ccncc4)o3)ccc2OC)ccc1C", "label 0"],
  ["Cc1cc(N(CCC#N)CCC#N)ccc1/N=N/c1ccc(C(=O)O)cc1", "label 0"],
  ["COc1cc2c(c(OC)c1OC)CCNC2C1=C(O)COC1=O (stereo unspecified)", "label 0"],
  ["COc1ccc(CN2CCC/C=C/CC(Cl)(Cl)C2=O)cc1", "label 0"],
  ["Nc1nc(S)nc(C(=O)Nc2nccs2)c1-c1ccccc1", "label 0"]
]}

Query: Record lookup: outcome of this test for COC(=O)[C@@]12OC[C@]34C([C@@H](O)C1O)[C@@]1(C)CC(=O)C(O)=C(C)C1C[C@H]3OC(=O)[C@H](OC(=O)CC(C)C(F)(F)F)[C@H]42 (stereo partly specified) ?
Reply: label 1

Query: Same lookup for COC(=O)C1=C(c2ccc3c(c2)OCO3)OC(c2cc(OC)c(OC)c(OC)c2)C1 (stereo unspecified) , please.
Reply: label 0

Query: Please give the result for Cc1ccc2sc3cc(=O)cc(C)c-3nc2c1 too.
Reply: label 0

Query: Follow-up entry: CN[C@@H]1C[C@H]2O[C@@](C)([C@@H]1OC)n1c3ccccc3c3c4c(c5c6ccccc6n2c5c31)C(=O)N[C@@H]4O
Reply: label 1

Query: Query COC(=O)CCC(=O)N1Cc2cc(C)ccc2N(C(=O)CCC(=O)OC)Cc2cc(C)ccc21 next
Reply: label 0

Query: Another compound to look at: CC#Cc1c(O)c2c(c(O)c1C#CC)C(=O)c1ccccc1C2=O
Reply: label 0

Query: Would you mind doing FC(F)(F)P1C2C=CC(CC2)C1(F)F (stereo unspecified) as well?
Reply: label 0

Query: Also [N-]=[N+]=NC1C2CC3C4CC5CC3[C@H](C2)C(C5)C41 (stereo partly specified) , if possible.
Reply: label 0

Query: # repeat for CC(=O)c1ccc(NC(=O)/C(Cc2ccccn2)=N/NC(=O)C[N+](C)(C)C)cc1
Reply: label 0

Query: Try the compound CNc1ccc([N+](=O)[O-])c2c(NCCCN(C)C)ccnc12
Reply: label 0

Query: Item: C=CSCCC(N)C(=O)O (stereo unspecified)
Reply: label 0

Query: Again, but for CCOC(=O)/C=C1/C(CCCOCc2ccccc2)C2CCCC23CC2(CCN13)OCCO2 (stereo unspecified)
Reply: label 0

Query: Field entry: CS(=O)(=O)OCCN1CCN(C(=O)c2cccc3c(Nc4ccc(S(N)(=O)=O)cc4)c4ccccc4nc23)CC1
Reply: label 0

* * *

Test system: 786-0
Experiment: NCI tumour cell line growth inhibition, 48 h
Activity calls are given as the source filed them. Rule as the data show it: active = GI50 up to about 1.1 µM and inactive = higher.
The entries below are paired with their reported GI50.

Some solved entries appear below for comparison.
{"columns": ["molecule", "test-result"],
 "data": [
  ["O=C(CN1CCN(C(=O)OCc2ccccc2)CCN(CC(=O)N2CCCCC2)CCN(C(=O)OCc2ccccc2)CC1)N1CCCCC1", "13.8 µM (inactive)"],
  ["COC(=O)CC1C2CC3C(C2=O)C13 (configuration not stated)", "> 100 µM (inactive)"],
  ["C[N+](C)(C)CC1CCCc2ccccc2C1=O (configuration not stated)", "2.44 µM (inactive)"]
]}

Query: Returns the measured GI50 for the input molecule. Input: CC12CC(=O)OC(Cc3ccccc31)O2 (configuration not stated)
Reply: > 100 µM (inactive)

Query: Would you mind doing Cc1ccc(NC(=O)c2cccc(OP(=O)(O)Nc3ccc(C)cc3)c2)cc1 as well?
Reply: > 100 µM (inactive)

Query: How about CC(C)C1(Cl)CCC2C3(C)CCCC(C)(C(=O)O)C3CC(Cl)C2(Cl)C1Cl (configuration not stated) ?
Reply: 32.6 µM (inactive)

Query: How about this molecule: Nc1nc(S)nc(C(=O)Nc2nccs2)c1-c1ccccc1
Reply: > 100 µM (inactive)

Query: // same read-out, input: COC(=O)C1=C(C(=O)OC)SC(=C2SC3=C(SC(=C4SCCS4)S3)S2)S1
Reply: > 100 µM (inactive)

Query: Now try Nc1nc(SCc2ccccn2)c2ncn(C3CCCC3)c2n1 .
Reply: > 100 µM (inactive)
